SYSTEM UNDER TEST: T1, human leukocyte elastase (hLE) (human), P08246
T1 chain: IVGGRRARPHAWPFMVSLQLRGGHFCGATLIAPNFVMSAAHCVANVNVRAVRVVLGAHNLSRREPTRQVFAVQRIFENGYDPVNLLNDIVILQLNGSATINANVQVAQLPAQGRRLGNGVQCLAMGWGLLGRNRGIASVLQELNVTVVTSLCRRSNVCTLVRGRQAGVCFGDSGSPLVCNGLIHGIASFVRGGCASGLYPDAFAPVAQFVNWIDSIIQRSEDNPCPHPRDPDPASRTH
MEASUREMENT PARAMETERS: modification not given
PARAMETER MEASURED: Ki (µM)

BINDER: KRQDNEILIFWSKDI [CRP57-71 (peptide 5)]
RECORDED NUMBER: 85
